B1: TPR t1 (parent)
chain: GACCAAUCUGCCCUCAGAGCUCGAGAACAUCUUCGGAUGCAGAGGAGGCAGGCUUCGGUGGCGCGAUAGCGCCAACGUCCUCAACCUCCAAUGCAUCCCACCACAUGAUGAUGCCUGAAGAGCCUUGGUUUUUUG

- Variants of: B1
- experimental.details: polymerase ribozyme fitness, log enrichment relative to wild type (log ratio); higher = more active; in vitro selection for triplet polymerase activity
Please map values of polymerase ribozyme fitness (log ratio) to classes as shown: A: < -4; B: ≥ -4 and < -2; C: ≥ -2

Band assignment needed for A6U C79G please. C

Category of U21A G39C C49U G63A A75G A121C , please. B

Returns: class label. Input: A37C C56A U78C U130C C

Hey, which category is U21A C22A C40U C73U C101A U133G in, do you know? A

Record A24G C56G G113A G120A G128A — which class? A

Given G63U C88U , name the class its polymerase ribozyme fitness (log ratio) places it in. B

Which band does A68U U112A fall in? A

Kindly state the category for this variant: A43G G44U C49G U96A B

Looking at C4U C72G C94G G113A G122U , which class would you pick? B

Please let me know in which category the item G39A A43U C72U C73G C115G U126C belongs. A

Class (by measured polymerase ribozyme fitness (log ratio)) for C40A C79A B

Field: class (polymerase ribozyme fitness (log ratio)) — entry: C15G A118U U131A C

Lab note: sort G44U G71U C104U U106A into the matching polymerase ribozyme fitness (log ratio) band. C

Dear colleague, I would appreciate it if you could identify the bin for G77U A111U and reply at your convenience. B

Form field 'band' for C22G C34U U38A U54C A83C U106G U109A C114G A

State the class of the variant shown: A16C C124A C

Please indicate the class for U9C C13U G48A A74C U81G C101U U126C based on its polymerase ribozyme fitness (log ratio). B

Which band does G44A G60U C72U A90U fall in? C

Exercise: read the entry U7A U33A C70U and state which class it falls under. A

Which category fits this record: A2C U21A C89G A

Which bin should I file G10C G42A A43U C80A U132A under? A
